This section lists Ki readings for α1A (rat submaxillary gland) (Rattus norvegicus, UniProt P43140).
Value Type: Ki

- O=C(Nc1cccc2c1CCCC2c1c[nH]cn1)N1CCCCC1 (stereo not drawn) [Example 114]: 1050 nM
- CC1CC(C)CN(C(=O)Nc2cccc3c2CCCC3c2c[nH]cn2)C1 (stereo not drawn) [Example 115]: 1160 nM
- CCS(=O)(=O)Nc1cccc2c1COC2c1c[nH]cn1.O=C(O)/C=C\C(=O)O (stereo not drawn) [Example 87, Maleate]: 936 nM
- CCS(=O)(=O)Nc1cccc2c1CCCC2c1c[nH]c(C)n1.O=C(O)/C=C\C(=O)O (stereo not drawn) [Example 84, Maleate]: 792 nM
- CN(C)S(=O)(=O)Nc1cccc2c1CCCC2c1c[nH]cn1 (stereo not drawn) [Example 111]: 579 nM
- CCS(=O)(=O)Nc1cccc2c1OCCC2c1c[nH]cn1 (stereo not drawn) [Example 79]: 638 nM
- CC(C)(OC(=O)Nc1cccc2c1CCCC2c1c[nH]cn1)C(Cl)(Cl)Cl (stereo not drawn) [Example 122]: 1030 nM
- O=S(=O)(Cc1ccccc1)Nc1cccc2c1CCCC2c1cnc[nH]1 (stereo not drawn) [Example 67]: 901 nM
- C=C(c1cccc(NS(C)(=O)=O)c1)c1c[nH]cn1 [Example 92]: 689 nM
- O=C(Nc1cccc2c1CCCC2c1c[nH]cn1)OCC(Cl)(Cl)Cl (stereo not drawn) [Example 121]: 229 nM
- CS(=O)(=O)Nc1cc(F)cc2c1OCCC2c1c[nH]cn1.O=C(O)/C=C\C(=O)O (stereo not drawn) [Example 90, Maleate]: 237 nM
- O=C(Nc1cccc2c1CCCC2c1c[nH]cn1)N1CCOCC1 (stereo not drawn) [Example 117]: 1100 nM
